Listed here are molecules together with their documented pIC50.
# EXPERIMENTAL TARGET: CYP1A2 (Homo sapiens)
# Construct: tissue Corning (USA); host or cells: mixed human liver microsomes
# Sequence (P05177 1-516): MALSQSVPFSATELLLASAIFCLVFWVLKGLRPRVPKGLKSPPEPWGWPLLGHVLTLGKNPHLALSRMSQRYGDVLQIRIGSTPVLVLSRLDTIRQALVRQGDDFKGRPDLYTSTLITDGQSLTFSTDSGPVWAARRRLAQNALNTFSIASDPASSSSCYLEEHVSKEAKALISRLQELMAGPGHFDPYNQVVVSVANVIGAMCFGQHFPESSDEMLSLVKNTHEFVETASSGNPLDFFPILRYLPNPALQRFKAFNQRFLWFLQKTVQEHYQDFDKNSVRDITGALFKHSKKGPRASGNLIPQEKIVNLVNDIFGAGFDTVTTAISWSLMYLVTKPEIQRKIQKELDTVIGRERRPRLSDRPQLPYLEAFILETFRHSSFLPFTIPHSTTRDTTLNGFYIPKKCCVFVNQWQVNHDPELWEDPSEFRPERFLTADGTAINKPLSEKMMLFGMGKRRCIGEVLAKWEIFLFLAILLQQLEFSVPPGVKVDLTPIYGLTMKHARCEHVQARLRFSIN
# PROTOCOL TEXT: CYP450 inhibition in human liver microsomes, CYP1A2
# Format: in vitro ADME
# CONDITION LABEL: human liver microsomes, probe phenacetin; read-out: IC50, subtype 1A2
# Method: This study was intended to investigate the inhibitory effect of the test compounds on five major CYP450 enzyme subtypes CYP1A2, 2C9, 2C19, 2D6 and 3A4 in human liver microsomes. The mixed human liver microsomes used in this assay were purchased from Corning (USA). […] The characteristic metabolites in the supernatant (acetaminophen for CYP1A2, 4-hydroxydiclofenac for CYP2C9, 4-hydroxymephenytoin for CYP2C19, dextrorphan for CYP2D6, 1-hydroxymidazolam for CYP3A4-M) were analyzed by LC-MS/MS. […]
pIC50: −log10 of the molar value.
RECORDED ENDPOINT: pIC50

1. COc1cc2nn([C@H]3CC[C@](C)(O)CC3)cc2cc1NC(=O)c1cccc(C(F)(F)F)n1 ... < 4.52
2. CC(C)(O)c1cc2nn([C@H]3CC[C@](C)(O)CC3)cc2cc1NC(=O)c1cccc(C(C)(F)F)n1 ... < 4.52
3. COc1cc2nn([C@H]3CC[C@H](O)CC3)cc2cc1NC(=O)c1cccc(C(F)(F)F)n1 ... < 4.52

====

Listed here are compounds together with their documented Vd.
# PROTOCOL TEXT: PK assay in rat (intravenous injection and oral gavage)
# Type: in vivo
# CONDITION LABEL: plasma, 1 mg/kg; male SD rat, intravenous injection, 1 mpk; read-out: Volume of distribution at steady state VZ
RECORDED ENDPOINT: Vd

1) COc1cc2nn([C@H]3C[C@H](CO)C3)cc2cc1NC(=O)c1cccc(C(F)(F)F)n1 [MY-004-082] ... 0.93 L/kg
2) CN(C)c1cc2nn([C@H]3C[C@H](C(C)(C)O)C3)cc2cc1NC(=O)c1cccc(C(F)(F)F)n1 [MY-004-089] ... 2.26 L/kg
3) COc1cc2nn([C@H]3CC[C@H](O)CC3)cc2cc1NC(=O)c1cccc(C(F)(F)F)n1 [MY-004-127-1] ... 1.55 L/kg
4) COc1cc2nn([C@H]3CC[C@](C)(O)CC3)cc2cc1NC(=O)c1cccc(C(F)(F)F)n1 [MY-004-126-1] ... 2.34 L/kg
5) COc1cc2nn([C@H]3CC[C@@](C)(O)CC3)cc2cc1NC(=O)c1cccc(C(F)(F)F)n1 [MY-004-126-2] ... 2.4 L/kg
